Overview of recorded Potency for various compounds
experimentalSystem: DNA dC->dU-editing enzyme APOBEC-3G (Homo sapiens)
runDescription: qHTS for inhibitors of Vif-A3G interactions: Cherry picks counterscreen;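 note: hits raise yellow fluorescence by blocking Vif-driven A3G-eYFP degradation; nearly all actives have a fitted effect of over 70% in size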; note: potency is the fitted concentration of half-maximal effect
conditionSummary: HeLa A3G-eYFP + Vif, eYFP fluorescence, 24 h
The campaign covered roughly 2,100 compounds. About 1,100 (52%) were called active. Not shown: some 27% with an inconclusive outcome. So high a share suggests a set chosen from earlier hits. This is one part of the list.

Solved entries (count: 5):
[[record]]
compound = "CC(C)N1CCc2c(sc(NC(=O)c3cc4cc([N+](=O)[O-])ccc4s3)c2C(N)=O)C1"
result = "23.1 µM (active)"

[[record]]
compound = "O=[N+]([O-])c1ccc(N/N=C/c2sc(N3CCOCC3)nc2-c2ccccc2)c(S(=O)(=O)Nc2ccccc2Cl)c1"
result = "2.91 µM (active)"

[[record]]
compound = "C=CCNc1nc(-c2ccccc2)c(C(=O)OCC)cc1C#N"
result = "7.04 µM (active)"

[[record]]
compound = "CC(C)N1CCc2c(sc(NC(=O)c3ccc(S(=O)(=O)N4CCOCC4)cc3)c2C#N)C1"
result = "8.2 µM (active)"

[[record]]
compound = "FC(F)(Cl)c1nnc2ccc(Cl)nn12"
result = "6.27 µM (active)"


Report Potency for "CCCN1CCc2c(sc(NC(=S)NC(=O)c3ccccc3)c2C#N)C1" please.
14.6 µM (active)

Report Potency for "Nc1c(C(=O)c2ccccc2)sc2nsc(SCCN3CCCC3)c12" please.
14 µM (active)

Report Potency for "NC(=O)c1c(NC(=O)c2ccccc2)sc2c1CCN(Cc1ccccc1)C2" please.
15.8 µM (active)

Report Potency for COc1cc(C2Nc3ccc4ncccc4c3C3=C2C(=O)CCC3)ccc1O (stereo not given) please.
14 µM (active)

Report Potency for "Nc1c(C(=O)c2ccccc2)sc2nsc(SCCN3CCOCC3)c12" please.
4.61 µM (active)

====

Overview of recorded max response for various compounds
experimentalSystem: DNA dC->dU-editing enzyme APOBEC-3G (Homo sapiens) (UniProt Q9HC16)
Sequence (Q9HC16 whole entry, looked up): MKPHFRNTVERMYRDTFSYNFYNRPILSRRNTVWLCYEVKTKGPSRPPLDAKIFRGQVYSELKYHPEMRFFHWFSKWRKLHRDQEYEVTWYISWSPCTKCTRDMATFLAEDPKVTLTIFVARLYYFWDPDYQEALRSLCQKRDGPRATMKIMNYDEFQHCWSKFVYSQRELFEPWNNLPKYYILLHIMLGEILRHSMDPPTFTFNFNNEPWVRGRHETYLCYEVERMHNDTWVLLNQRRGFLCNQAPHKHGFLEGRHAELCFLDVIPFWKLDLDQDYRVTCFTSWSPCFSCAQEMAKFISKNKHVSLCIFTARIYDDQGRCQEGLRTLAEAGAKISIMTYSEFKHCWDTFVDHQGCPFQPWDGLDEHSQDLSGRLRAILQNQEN
runDescription: qHTS for inhibitors of Vif-A3G interactions: Cherry picks counterscreen;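 note: hits raise yellow fluorescence by blocking Vif-driven A3G-eYFP degradation; nearly all actives have a fitted effect of over 70% in size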;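 for max response: max response given as percent of control signal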
conditionSummary: HeLa A3G-eYFP + Vif, eYFP fluorescence, 24 h
From the text: The recent discovery and characterization of host restriction factors, which provide a potent defense to invading retroviruses, has provided new targets for antiviral drug development. […] In the presence of an inhibitor, it is expected that Vif will be unable to degrade A3G-eYFP and/or A3F-eYFP, resulting in an increase in yellow fluorescence. […]
In all, about 2,100 compounds went through this assay and about 1,100 (52%) were called active. Inconclusive results (about 27%) are left out. So high a share suggests a set chosen from earlier hits. The list shows a part of the results.
Answer with a number only, understood to be in %.

Solved entries (count: 5):
[[record]]
compound = "O=C1c2cccc3c([N+](=O)[O-])ccc(c23)C(=O)N1c1ccccn1"
experimentalsystem = "DNA dC->dU-editing enzyme APOBEC-3G (Homo sapiens) (UniProt Q9HC16)"
u = "%"
quantitativereadout = 54.4

[[record]]
compound = "O=C(O)CSc1cc(NS(=O)(=O)c2cccc([N+](=O)[O-])c2)c2ccccc2c1O"
experimentalsystem = "DNA dC->dU-editing enzyme APOBEC-3G (Homo sapiens) (UniProt Q9HC16)"
u = "%"
quantitativereadout = -17.9

[[record]]
compound = "CCn1c(SCC(=O)Nc2cccc(O)c2)nc2c1c(=O)n(C)c(=O)n2C"
experimentalsystem = "DNA dC->dU-editing enzyme APOBEC-3G (Homo sapiens) (UniProt Q9HC16)"
u = "%"
quantitativereadout = -1.18

[[record]]
compound = "CCCCOc1ccc(/C=C/C2=CC(C)(C)NC(=S)N2)cc1OCC"
experimentalsystem = "DNA dC->dU-editing enzyme APOBEC-3G (Homo sapiens) (UniProt Q9HC16)"
u = "%"
quantitativereadout = -1.97

[[record]]
compound = "Cc1oc(C)c2c(=O)ccc3c(c12)OC(N)=C(C#N)C3c1ccc(F)cc1 (stereo unspecified)"
experimentalsystem = "DNA dC->dU-editing enzyme APOBEC-3G (Homo sapiens) (UniProt Q9HC16)"
u = "%"
quantitativereadout = 44.8


Report max response for CC1CCN(C(=O)C(C)Sc2nc(-c3ccccc3)cc(C(F)(F)F)n2)CC1 (stereo unspecified) please.
2.38

Report max response for "O=C(N/N=C/C=C/c1ccco1)c1ccncc1" please.
0.191

Report max response for "CCS(=O)(=O)N1CCc2cc(C(=O)N3CCN(c4cccc(C(F)(F)F)c4)CC3)ccc21" please.
-3.11

Report max response for "O=[N+]([O-])c1cc(Cl)c2cccnc2c1O" please.
30.7

Report max response for "c1ccc(-c2cccc(-c3ccccn3)n2)nc1" please.
-27.5

Report max response for "O=[N+]([O-])c1cc(O)c2ncccc2c1" please.
-9.81

====

experimentalSystem: DNA dC->dU-editing enzyme APOBEC-3G (Homo sapiens) (UniProt Q9HC16)
runDescription: qHTS for inhibitors of Vif-A3G interactions: Cherry picks counterscreen;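 note: hits raise yellow fluorescence by blocking Vif-driven A3G-eYFP degradation; nearly all actives have a fitted effect of over 70% in size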; note: potency is the fitted concentration of half-maximal effect
conditionSummary: HeLa A3G-eYFP + Vif, eYFP fluorescence, 24 h
About 1,100 (52%) of roughly 2,100 compounds were called active. Another 27% or so got no clear call; they are omitted. So high a share suggests a set chosen from earlier hits. Some of the results follow.
quantity: Potency

Solved entries (count: 3):
[[record]]
molecule = "COc1cc(C(=O)NCC(=O)N2CCN(S(=O)(=O)c3cc(C)ccc3C)CC2)cc(OC)c1OC"
result = "9.94 µM (active)"

[[record]]
molecule = "COc1ccc(COc2cc(-c3cccc(OC)c3)nc3ccc(NC(=O)c4ccc(OC)cc4)cc23)cc1"
result = "3.53 µM (active)"

[[record]]
molecule = "CCc1ccc2nc(SCC(=O)N3CC(=O)Nc4ccccc43)c(C#N)cc2c1"
result = "12.5 µM (active)"


Report Potency for "O=[N+]([O-])c1ccc(N/N=C/C=C/c2ccco2)cc1" please.
18.4 µM (active)

Report Potency for "C=C(/C=C/c1ccc(N(C)C)cc1)c1nc2ccccc2s1" please.
16.4 µM (active)

Report Potency for "COc1cccc(/C=N/NC(=O)c2cc3c(OC)c(OC)ccc3[nH]2)c1OC" please.
7.9 µM (active)

Report Potency for "COc1ccc2nc(SCC(C)=O)c(C#N)cc2c1" please.
3.66 µM (active)

Report Potency for "CCc1ccc2nc(SCC(=O)Nc3ccccc3N3CCOCC3)c(C#N)cc2c1" please.
1.64 µM (active)

====

experimentalSystem: DNA dC->dU-editing enzyme APOBEC-3G (Homo sapiens) (UniProt Q9HC16)
runDescription: qHTS for inhibitors of Vif-A3G interactions: Cherry picks counterscreen;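 note: hits raise yellow fluorescence by blocking Vif-driven A3G-eYFP degradation; nearly all actives have a fitted effect of over 70% in size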; note: potency is the fitted concentration of half-maximal effect
conditionSummary: HeLa A3G-eYFP + Vif (tagged APOBEC3G with the HIV-1 protein that degrades it), eYFP fluorescence, 24 h
The campaign covered roughly 2,100 compounds. About 1,100 (52%) were called active. Another 27% or so got no clear call; they are omitted. The set was probably picked from earlier hits. The list shows a part of the results.
quantity: Potency

Solved entries (count: 6):
[[record]]
querysmiles = "Cc1cccc(CN2C(=O)N/C(=C/c3ccc(C)s3)C2=O)c1"
quantity = "Potency"
result = "6.27 µM (active)"

[[record]]
querysmiles = "N#CC(=Cc1ccccn1)c1nc(-c2ccc(Cl)cc2)cs1"
quantity = "Potency"
result = "6.27 µM (active)"

[[record]]
querysmiles = "Nc1nc(-c2cc(O)ccc2[N+](=O)[O-])cc(-c2ccccc2)c1[N+](=O)[O-]"
quantity = "Potency"
result = "14 µM (active)"

[[record]]
querysmiles = "Cc1cccc(N2CCN(C(=O)c3ccncc3)CC2)c1C"
quantity = "Potency"
result = "12.5 µM (active)"

[[record]]
querysmiles = "Cc1ccc(/C=C2/NC(=O)N(Cc3ccccc3F)C2=O)s1"
quantity = "Potency"
result = "8.2 µM (active)"

[[record]]
querysmiles = "COC(=O)c1ccc(Oc2cc(C)nc(SC)n2)cc1"
quantity = "Potency"
result = "8.86 µM (active)"


Identify the measured Potency of "CCOc1cc(-c2nnc(SCC(=O)NCc3ccccc3)nc2-c2ccc(OC)c(OCC)c2)ccc1OC" for DNA dC->dU-editing enzyme APOBEC-3G (Homo sapiens) (UniProt Q9HC16).
2.31 µM (active)

Identify the measured Potency of "COc1ccc2c(n1)Sc1nc3ccccc3nc1N2" for DNA dC->dU-editing enzyme APOBEC-3G (Homo sapiens) (UniProt Q9HC16).
3.26 µM (active)

Identify the measured Potency of "Cc1ccc(/C=C2/NC(=O)N(Cc3ccccc3)C2=O)s1" for DNA dC->dU-editing enzyme APOBEC-3G (Homo sapiens) (UniProt Q9HC16).
20.6 µM (active)

Identify the measured Potency of "Cc1ccccc1NC(=O)c1ccc2c(c1)c(C)c(C)n2Cc1ccccc1" for DNA dC->dU-editing enzyme APOBEC-3G (Homo sapiens) (UniProt Q9HC16).
2.91 µM (active)

Identify the measured Potency of "O=C(NNc1ncc(C(F)(F)F)cc1Cl)c1c(Cl)cccc1Cl" for DNA dC->dU-editing enzyme APOBEC-3G (Homo sapiens) (UniProt Q9HC16).
14 µM (active)
